In this section we review reported Emax, % of reference agonist values for a set of molecules.
- measurementTarget: human OX2R (Homo sapiens)
- Construct: expressed in transfected cells; host or cells: CHO (Chinese hamster ovary) cells, grown under G418 selection
- Sequence (O43614 whole entry): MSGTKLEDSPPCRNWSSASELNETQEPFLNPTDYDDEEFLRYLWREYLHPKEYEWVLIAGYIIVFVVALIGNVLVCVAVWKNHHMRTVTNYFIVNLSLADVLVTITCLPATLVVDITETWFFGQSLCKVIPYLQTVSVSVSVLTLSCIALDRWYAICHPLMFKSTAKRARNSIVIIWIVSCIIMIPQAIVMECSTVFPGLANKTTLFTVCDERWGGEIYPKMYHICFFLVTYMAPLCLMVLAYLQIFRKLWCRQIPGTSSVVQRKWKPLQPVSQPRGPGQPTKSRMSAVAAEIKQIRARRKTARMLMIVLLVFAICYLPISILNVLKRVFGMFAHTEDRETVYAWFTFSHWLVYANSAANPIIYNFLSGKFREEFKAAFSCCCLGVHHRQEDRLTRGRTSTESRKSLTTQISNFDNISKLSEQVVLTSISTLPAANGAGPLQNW
- procedureDetails: IPOne (IP-1 accumulation) assay in CHO cells expressing human OX2R
- Type: cell-based
- statedConditions: OX2R; percentage of sample raw value/mean max effect (reference compound at 1 uM with 100% activity)
- Source text: The utility of the compounds in accordance with the present invention as orexin receptor OX1R and/or OX2R agonists may be readily determined without undue experimentation by methodology well known in the art. […] The half-life of IP-3 is relatively short, being rapidly metabolized to inositol monophosphate (IP-1), which can be readily detected using a commercially available assay kit (IP-One; Cisbio; cat #621PAPEC) coupled with a cell line expressing the target receptor(s) of interest. […]
Just the number please, in %, no unit attached.

Problem: Give human OX2R (Homo sapiens) Emax, % of reference agonist for CS(=O)(=O)N[C@H]1CCN(C(=O)CO)[C@H]1CO[C@H]1CC[C@@H](c2ccccc2)CC1 (relative stereo)
Result: 103.3

Problem: Query CCNC(=O)N1CC[C@H](NS(C)(=O)=O)[C@@H]1COC1CCC(C(C)C)CC1 (some centres unmarked) next
Result: 99.8

Problem: Query CC(C)NC(=O)N1CC[C@@H](NS(C)(=O)=O)[C@H]1CO[C@H]1CC[C@@H](c2ccccc2)CC1 (relative stereo) next
Result: 99.2

Problem: Query CC(=O)N1CC[C@H](NS(C)(=O)=O)[C@@H]1CO[C@H]1CC[C@@H](c2ccccc2)CC1 (relative stereo) next
Result: 101.3

Problem: Query CS(=O)(=O)N[C@@H]1CCN(C(=O)OCCF)[C@@H]1CO[C@H]1CC[C@@H](c2ccccc2)CC1 (relative stereo) next
Result: 98.4

Problem: Query CCS(=O)(=O)N[C@H]1CCN(C(=O)OC)[C@H]1CO[C@H]1CC[C@@H](c2ccccc2)CC1 (relative stereo) next
Result: 99.9

Problem: Query CC(C)C1CCC(OC[C@H]2[C@@H](NS(C)(=O)=O)CCN2C(=O)C2CC2)CC1 (some centres unmarked) next
Result: 100.6

Problem: Query COC(=O)N1CC[C@@H](NS(=O)(=O)N(C)C)[C@H]1CO[C@H]1CC[C@@H](c2ccccc2)CC1 (relative stereo) next
Result: 98.8
